Reported T/C values for the following molecules.
- Tested on: P388 leukemia ip, CD2F1 mice, survival T/C
- ASSAY PROCEDURE: NCI In Vivo Anticancer Drug Screen. Data for tumor model P388 Leukemia (intraperitoneal) in CD2F1 (CDF1) mice
- TEST SETTINGS: endpoint: median survival time; dose: 25.0 mg/kg/injection; schedule: Q01DX009 (ip); vehicle: Klucel (hydroxypropylcellulose) (HPC); higher = longer survival
- Method: The antitumor activity of compounds was measured in mice bearing transplantable tumors. Survival or tumor size were measured and the results are expressed as the measurement made in the treated group (T) divided by the measurement made in the vehicle treated control group (C). The tumor model used in this assay is P388 Leukemia (intraperitoneal) in CD2F1 (CDF1) mice
Inconclusive results and toxic doses are left out.

Clc1ccc(C2=CSC3=NCCN23)cc1
110 % of control
Cc1ccc2nc(NC(=S)S)sc2c1
113 % of control
[I][Hg][CH]1CCC2CCCC1O2 (stereo not drawn)
102 % of control
CN(C)c1ccc(C=C2C(=O)CC(C)(C)CC2=O)cc1
106 % of control
CCCCCCCCCCCC[N+](C)(C)C (tested in a mixture with another compound)
114 % of control
CCCCC1C(=O)N2C=C(c3ccccc3)c3ccccc3N2C1=O (stereo not drawn)
104 % of control
Cc1ccnc(NC(O)C(Cl)(Cl)Cl)c1 (stereo not drawn)
100 % of control
CCN(CC)C1CS(=O)(=O)OC2=C1CCCc1ccccc12 (stereo not drawn)
102 % of control

Any idea what its T/C is? The molecule is C[As](C)SCC(N)C(=O)O (stereo not drawn)
106 % of control

Any idea what its T/C is? The molecule is O=C(O)CCCSC(=S)c1ccccc1
100 % of control

Any idea what its T/C is? The molecule is NC(=S)N/N=C/c1ccncn1
100 % of control

Any idea what its T/C is? The molecule is Nc1cc(-c2ccc(Br)cc2)nn1-c1nc(-c2ccc(Br)cc2)cs1
87 % of control

Any idea what its T/C is? The molecule is NC(CSC(c1ccccc1)(c1ccccc1)c1ccc(CBr)cc1)C(=O)O (stereo not drawn)
90 % of control

====

- System: P388 leukemia ip, CD2F1 mice, survival T/C
- ASSAY PROCEDURE: NCI In Vivo Anticancer Drug Screen. Data for tumor model P388 Leukemia (intraperitoneal) in CD2F1 (CDF1) mice
- TEST SETTINGS: endpoint: median survival time; dose: 60.0 mg/kg/injection; schedule: Q01DX005 (ip); vehicle: Klucel (hydroxypropylcellulose) (HPC); higher = longer survival
Toxic doses and inconclusive results are not listed. Peptide text beside a SMILES is read from it.
Reported T/C values for the following compounds.

CCC(C)C(N)C(=O)NC(Cc1ccc(O)cc1)C(=O)O (stereo not drawn) (H-Ile-Tyr-OH; configuration not given here)
97 % of control
O=C1C2=C(Nc3ccccc3N2)OC1c1ccncc1 (stereo not given)
93 % of control
CCOc1c(N=Nc2ccc(C)cc2)c(C)nn1C(=S)S
96 % of control

Any idea what its T/C is? The compound is Clc1ccc(C2=NNC(c3ccc(Cl)cc3)=NN2)cc1
103 % of control

Any idea what its T/C is? The compound is COc1ccc(C)cc1NC(=O)SC(C)C
89 % of control

Any idea what its T/C is? The compound is CC(C)(C)OC(=O)CS(=O)Nc1ccccc1O (stereo not given)
105 % of control

Any idea what its T/C is? The compound is Cc1cc(N(CCO)CCO)c(OCc2ccccc2)c(N(CCO)CCO)c1
99 % of control

Any idea what its T/C is? The compound is COC(=O)NC(NC(=O)OC)C(F)(F)C(NC(=O)OC)NC(=O)OC
96 % of control

====

- System: P388 leukemia ip, CD2F1 mice, survival T/C
- ASSAY PROCEDURE: NCI In Vivo Anticancer Drug Screen. Data for tumor model P388 Leukemia (intraperitoneal) in CD2F1 (CDF1) mice
- TEST SETTINGS: endpoint: median survival time; dose: 200.0 mg/kg/injection; schedule: Q01DX009 (ip); vehicle: Klucel (hydroxypropylcellulose) (HPC); higher = longer survival
Inconclusive results and toxic doses are left out.
Reported T/C values for the following compounds.

CCOC(=O)C1=C(C)O/C(=C/c2ccc(OC)cc2)C1=O
100 % of control
c1ccc2c(c1)ccc1c2nnc2nnnn21
95 % of control
O=C1/C(=C/c2ccc(/C=C3\CCc4ccccc4C3=O)cc2)CCc2ccccc21
101 % of control
CC1=NNC(=O)/C1=C/c1ccccc1Cl
112 % of control

Any idea what its T/C is? The compound is CC(CCc1ccc2c(c1)OCO2)NCC(O)c1ccc(O)c(C(N)=O)c1 (stereo not given)
100 % of control

Any idea what its T/C is? The compound is COc1ccc(/C=N/NC(N)=O)c(OC)c1OC
98 % of control

====

- Test system: P388 leukemia ip, CD2F1 mice, survival T/C
- ASSAY PROCEDURE: NCI In Vivo Anticancer Drug Screen. Data for tumor model P388 Leukemia (intraperitoneal) in CD2F1 (CDF1) mice
- TEST SETTINGS: endpoint: median survival time; dose: 100.0 mg/kg/injection; schedule: Q04DX003 (ip); vehicle: saline with Tween-80; higher = longer survival
- Description: The antitumor activity of compounds was measured in mice bearing transplantable tumors. Survival or tumor size were measured and the results are expressed as the measurement made in the treated group (T) divided by the measurement made in the vehicle treated control group (C). The tumor model used in this assay is P388 Leukemia (intraperitoneal) in CD2F1 (CDF1) mice
Toxic doses and inconclusive results are not listed.
ASSAY METRIC: T/C

Study these solved cases before continuing.
c1ccc(-c2nnn(-n3nnc(-c4ccccc4)n3)n2)cc1
97 % of control
C/C(=C/c1cc(Br)c(O)c(Br)c1)[N+](=O)[O-]
98 % of control
CCOC(=O)c1[nH]cnc1/N=N/N(C)CCO
109 % of control
S=c1[nH]nc(NC2CCCCC2)s1
91 % of control
CCOC(=O)CCC(C)(C#N)C(C#N)C(=O)OCC (configuration not stated)
100 % of control
Cc1ccnc(NCCCCCCNc2nccc(C)n2)n1
87 % of control
COc1ccc(C(=Nc2ccc(C)cc2)c2ccc([N+](=O)[O-])cc2)cc1
95 % of control
c1ccc2c(c1)Cc1c(-c3ccncc3)n[nH]c1-2
94 % of control

GET /values?readout=T/C&system=P388 leukemia ip, CD2F1 mice, survival T/C&item= S=C(N=Nc1ccccc1)NNc1ccccc1
90 % of control

GET /values?readout=T/C&system=P388 leukemia ip, CD2F1 mice, survival T/C&item= O=C(Nc1nc2cc(Cl)ccc2o1)c1ccc(C(=O)Nc2nc3cc(Cl)ccc3o2)cc1
108 % of control

GET /values?readout=T/C&system=P388 leukemia ip, CD2F1 mice, survival T/C&item= CCCCNc1nc(SC)nc2nc[nH]c12
98 % of control

GET /values?readout=T/C&system=P388 leukemia ip, CD2F1 mice, survival T/C&item= CC1CC(C)(C)N=C(C(C)C)O1 (configuration not stated)
100 % of control

====

- System: P388 leukemia ip, CD2F1 mice, survival T/C
- ASSAY PROCEDURE: NCI In Vivo Anticancer Drug Screen. Data for tumor model P388 Leukemia (intraperitoneal) in CD2F1 (CDF1) mice
- TEST SETTINGS: endpoint: median survival time; dose: 120.0 mg/kg/injection; schedule: Q01DX005 (ip); vehicle: saline; higher = longer survival
Toxic doses and inconclusive results are not listed.
ASSAY METRIC: T/C

Study these solved cases before continuing.
O=C(CC1=NC2NN(c3ccccc3)C(=O)C2=C1CC(=O)c1ccccc1)c1ccccc1 (centres undefined)
107 % of control
C=CC(C)CC(N)C(=O)O (centres undefined)
105 % of control
Cc1nnc2c3[nH]c4ccccc4c3cnn12
95 % of control
CS(=O)(=O)CC(=N\N)/C(CS(C)(=O)=O)=N/N
100 % of control
COc1ccc(C(=O)C(C)(c2nc3n(c2O)C(=N)N=N3)c2nc3n(c2O)C(=N)N=N3)cc1 (centres undefined)
102 % of control
CS(=O)CC1OC2OC3C(CO)OC(OC4C(CO)OC(OC5C(CO)OC(OC6C(CO)OC(OC7C(CO)OC(OC8C(CO)OC(OC1C(O)C2O)C(O)C8O)C(O)C7O)C(O)C6O)C(O)C5O)C(O)C4O)C(O)C3O (centres undefined)
106 % of control
COC(=O)C1(CC(=O)C(c2ccccc2)c2ccccc2)NC(=S)NC(=O)C1C#N (centres undefined)
95 % of control
O=C1NC2(CCCCC2)C(=O)N1CCl
118 % of control

Any idea what its T/C is? The compound is Cc1ccc(/C=C/C(=N/NC(=O)c2ccccc2)C(C)CN(C)C)cc1 (centres undefined)
111 % of control

Any idea what its T/C is? The compound is CCN(CCO)CC1CCCC2CCCCC21 (centres undefined)
98 % of control
